- TEST DESCRIPTION: Peptide stability in simulated intestinal fluid (SIF)
- Assay type: in vitro ADME
- CONDITION: pig, simulated intestinal fluid; SIF, 1 h, pH 6.8, pancreatin, 37° C., 10 μM
*1 amine or outer side, *2 acyl side, *3 side chain or, on linkers, in order; H or OH if unused. Where a SMILES comes first, the peptide text is derived from it. Bridges are numbered along the chain shown (N, C = ends). [ ]: non-standard residue; d: D form. 2Nal = N[C@@H](Cc1ccc2ccccc2c1)C(=O)O; AEF = NCCOc1ccc(C[C@H](N)C(=O)O)cc1; X1 = O=C(Cc1ccc(CN[*:1])cc1)[*:2]; 3Pal = N[C@@H](Cc1cccnc1)C(=O)O; αMeL = CC(C)C[C@](C)(N)C(=O)O; Dab = NCC[C@H](N)C(=O)O

[
  {
    "COMPOUND": "CNC(=O)[C@H](Cc1cccnc1)NC(=O)[C@H](CCN)NC(=O)[C@@H]1CCC(=O)NCc2ccc(cc2)CC(=O)N[C@@H](CO)C(=O)N[C@H]2CCC(=O)NCC[C@H](NC(=O)[C@H](CCCCNC(C)=O)NC(=O)[C@H](Cc3c[nH]c4ccccc34)NC2=O)C(=O)N[C@@H](Cc2ccc(OCCN)cc2)C(=O)N[C@@H](Cc2ccc3ccccc3c2)C(=O)N[C@@](C)(CC(C)C)C(=O)N1 [Compound 24] ([X1]SEWK(Ac)[Dab][AEF][2Nal][αMeL]E[Dab][3Pal]-NHMe; lactam 3-6, N-10)",
    "remaining at 1 h, 10 µM / %": 91
  },
  {
    "COMPOUND": "CNC(=O)[C@H](Cc1cccnc1)NC(=O)[C@H](CO)NC(=O)[C@@H]1CCC(=O)NCc2ccc(cc2)CC(=O)N[C@@H](C)C(=O)N[C@H]2CCC(=O)NCC[C@H](NC(=O)[C@H](CCC(N)=O)NC(=O)[C@H](Cc3c[nH]c4ccccc34)NC2=O)C(=O)N[C@@H](Cc2ccc(OCCN)cc2)C(=O)N[C@@H](Cc2ccc3ccccc3c2)C(=O)N[C@@](C)(CC(C)C)C(=O)N1 [Compound 40] ([X1]AEWQ[Dab][AEF][2Nal][αMeL]ES[3Pal]-NHMe; lactam 3-6, N-10)",
    "remaining at 1 h, 10 µM / %": 93
  }
]
